Cited source: paper PMC3190583

- measurement.description: Single-dose pharmacokinetics of pantoprazole delayed-release tablet, study 1
- Format: in vivo, human
- settings: human, plasma, po, 40 mg
result.type: CL/F
Answer format reminder: number followed by unit.

-- ask # return recorded CL/F for input COc1ccnc(C[S+]([O-])c2nc3ccc(OC(F)F)cc3[nH]2)c1OC (stereo not shown)
-- reply 6.67 mL/min/kg

---

- measurement.description: Single-dose pharmacokinetics of pantoprazole delayed-release tablet, study 2
- Type: in vivo, human
- settings: human, plasma, po, 20 mg
result.type: Vd/F (L/kg)
Reply with just the number (in L/kg).

-- ask # return recorded Vd/F for input COc1ccnc(C[S+]([O-])c2nc3ccc(OC(F)F)cc3[nH]2)c1OC (stereo not shown)
-- reply 0.32

---

- measurement.description: Single-dose pharmacokinetics of pantoprazole delayed-release tablet, study 2
- Assay type: in vivo, human
- settings: human, plasma, po, 20 mg
result.type: half-life (min)
Reply with just the number (in min).

-- ask # return recorded half-life for input COc1ccnc(C[S+]([O-])c2nc3ccc(OC(F)F)cc3[nH]2)c1OC (stereo not shown)
-- reply 48

---

- measurement.description: Single-dose pharmacokinetics of pantoprazole delayed-release tablet, study 1
- Type: in vivo, human
- settings: human, plasma, po, 20 mg
result.type: CL/F (mL/min/kg)
Reply with just the number (in mL/min/kg).

-- ask # return recorded CL/F for input COc1ccnc(C[S+]([O-])c2nc3ccc(OC(F)F)cc3[nH]2)c1OC (stereo not shown)
-- reply 6.83

---

- measurement.description: Single-dose pharmacokinetics of pantoprazole delayed-release tablet, study 2
- Assay type: in vivo, human
- settings: human, plasma, po, 40 mg
result.type: AUC
Answer format reminder: number followed by unit.

-- ask # return recorded AUC for input COc1ccnc(C[S+]([O-])c2nc3ccc(OC(F)F)cc3[nH]2)c1OC (stereo not shown)
-- reply 4300 ng·h/mL

---

- measurement.description: Single-dose pharmacokinetics of pantoprazole delayed-release tablet, study 1
- Format: in vivo, human
- settings: human, plasma, po, 40 mg
result.type: Tmax (h)
Reply with just the number (in h).

-- ask # return recorded Tmax for input COc1ccnc(C[S+]([O-])c2nc3ccc(OC(F)F)cc3[nH]2)c1OC (stereo not shown)
-- reply 2

---

- measurement.description: Single-dose pharmacokinetics of pantoprazole delayed-release tablet, study 2
- Format: in vivo, human
- settings: human, plasma, po, 40 mg
result.type: Cmax (µg/mL)
Reply with just the number (in µg/mL).

-- ask # return recorded Cmax for input COc1ccnc(C[S+]([O-])c2nc3ccc(OC(F)F)cc3[nH]2)c1OC (stereo not shown) [pantoprazole]
-- reply 2.2

---

- measurement.description: Single-dose pharmacokinetics of pantoprazole delayed-release tablet, study 2
- Type: in vivo, human
- settings: human, plasma, po, 40 mg
result.type: Vd/F (L/kg)
Reply with just the number (in L/kg).

-- ask # return recorded Vd/F for input COc1ccnc(C[S+]([O-])c2nc3ccc(OC(F)F)cc3[nH]2)c1OC (stereo not shown)
-- reply 0.21

---

- measurement.description: Single-dose pharmacokinetics of pantoprazole delayed-release tablet, study 1
- Type: in vivo, human
- settings: human, plasma, po, 40 mg
result.type: Cmax (ng/mL)
Reply with just the number (in ng/mL).

-- ask # return recorded Cmax for input COc1ccnc(C[S+]([O-])c2nc3ccc(OC(F)F)cc3[nH]2)c1OC (stereo not shown)
-- reply 2100
